Target: T1, recombinant trimeric protein of human CD70 extracellular region (human CD70 mIgG Fc (knob) / mouse IgG Fc … (human, UniProt P01863 98-330 = IgG part))
T1 construct: The ELISA and Octet texts say only 'recombinant CD70 protein' / 'CM352 antigen'; also called recombinant human CD70 protein; recombinant CD70 protein
T1 chain 1: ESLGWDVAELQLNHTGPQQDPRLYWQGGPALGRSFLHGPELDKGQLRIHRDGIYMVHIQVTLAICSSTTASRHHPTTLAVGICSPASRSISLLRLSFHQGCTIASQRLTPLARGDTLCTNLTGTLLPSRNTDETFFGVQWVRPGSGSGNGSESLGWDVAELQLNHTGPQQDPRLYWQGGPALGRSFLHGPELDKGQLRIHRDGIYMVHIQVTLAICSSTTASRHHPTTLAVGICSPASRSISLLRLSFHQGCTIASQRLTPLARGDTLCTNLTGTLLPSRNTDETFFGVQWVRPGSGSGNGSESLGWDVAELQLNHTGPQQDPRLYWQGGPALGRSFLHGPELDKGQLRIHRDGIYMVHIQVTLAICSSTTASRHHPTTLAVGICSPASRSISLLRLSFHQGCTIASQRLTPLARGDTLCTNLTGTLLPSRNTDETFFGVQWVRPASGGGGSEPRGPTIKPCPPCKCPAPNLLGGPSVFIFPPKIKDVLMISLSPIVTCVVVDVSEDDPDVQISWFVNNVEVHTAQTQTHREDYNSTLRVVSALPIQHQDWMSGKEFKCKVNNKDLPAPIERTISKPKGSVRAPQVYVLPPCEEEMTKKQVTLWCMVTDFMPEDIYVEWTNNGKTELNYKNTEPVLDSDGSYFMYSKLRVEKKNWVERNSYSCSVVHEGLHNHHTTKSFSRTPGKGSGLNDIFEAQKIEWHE
T1 chain 2: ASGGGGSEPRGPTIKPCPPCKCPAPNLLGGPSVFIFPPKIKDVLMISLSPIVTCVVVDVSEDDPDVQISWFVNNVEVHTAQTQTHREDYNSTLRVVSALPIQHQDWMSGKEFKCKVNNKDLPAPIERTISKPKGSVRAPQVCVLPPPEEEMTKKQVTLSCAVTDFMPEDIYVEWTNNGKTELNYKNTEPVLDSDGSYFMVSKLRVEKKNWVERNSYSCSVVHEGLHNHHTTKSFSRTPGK
Test: BLI (Octet), biotin antigen on SA probe, Fab in solution
quantity_measured: koff (s⁻¹)

INSERT INTO results (binder, quantity_measured, uom, observed) VALUES
  ('25H7 Fab antibody (Fab, V domains shown, Purified Fab from the mouse Fab phage display library) VH: EIQLVQSGPELKKPGETVKISCKASGYTFTNYGMNWVKQTPGKGLKWMGWINTDTGEPTYADDFKGRFAFSLETSASTAYLQINNLKNEDMATYFCAREEDYRYVFNYWGQGTTLTVSS VL: DIQMTQTTSSLSASLGDRVTISCRASQDISNYLNWYQQKPDGTVKLLIYYTSRLHSGVPSRFSGSGSGTDYSLTISNLEQEDIATYFCQQGVTLPLTFGAGTKLELK', 'koff', 's⁻¹', 0.000326),
  ('26G11 Fab antibody (Fab, V domains shown, Purified Fab from the mouse Fab phage display library) VH: QVQLQQSGPELVKPGASVKISCKTSGYTFADYTMHWVRQSQGKSLEWIGDIYPNDGGPNNNQKFKDKATLTVDKSSSTAYMELRSLTSEDSAVYYCARPFYYGNYAGFAFWGQGTLVTVSA VL: EMVLTQSPAIMSASPGEKVTMTCSASSSVSYMYWYQQKPGSSPRLLIYDTSNLASGVPVRFSGSGSGTSYSLTISRMEAEDAATYYCQQWSSYPLTFGAGTRLEIK', 'koff', 's⁻¹', 0.000287),
  ('39H5 Fab antibody (Fab, V domains shown, Purified Fab from the mouse Fab phage display library) VH: EIQLVQSGPELKKPGETVKISCKASGYTFTNYGMNWVKQAPGQGLKWMGWINTYTGEPTYADDFTGRFAFSLETSASTAYLQINNLKNEDMAAYFCAREEDYRYVFNYWGQGTTLTVSS VL: DIQMIQSTSSLSASLGNRVTISCRASQDISNYLNWYQQKPDGTVKLLIYDTSRLHAGVPSRFSGSGSGTDYSLTISNLEQEDIATYFCQQGVTLPLTFGAGTKLEIK', 'koff', 's⁻¹', '9e-05'),
  ('12A1 Fab antibody (Fab, V domains shown, Purified Fab from the mouse Fab phage display library) VH: QVQLQQSGPGLVQPSQSLSITCTVSGFSLTTYAVHWVRQSPGKGLEWLGVIWSTGITDYNAAFISRLSISKDNSKSQVFFKMDSLQSDDTAIYFCARNPHYGNLNAMDYWGQGTSVTVSS VL: DIVLTQSPASLAVSLGQRATISCRASKSVSASGYTWMHWYQQKPGQAPKLLIYLASNLESGVPARFSGSGSGTDFTLNIHPVEEEDAATYYCQHSRELPPTFGGGTKLEIK', 'koff', 's⁻¹', 0.000317),
  ('14C12 Fab antibody (Fab, V domains shown, Purified Fab from the mouse Fab phage display library) VH: EVQLQQSGPELVKPGASVKMSCKASGYTFTDYVIHWVKQKPGQGLEWIGYLHPYNDDTKYNEKFKGKATLTSDKSSSTAYMELSSLTSEDSAVYYCARRGYYDYAWFADWGQGTLVTVSA VL: DIVLTQSPASLAVSLGQRATISCRASKSVSASGYTWIHWYQQKPRQAPKLLIYLASNLESGVPARFSGSGSGTDFTLNIHPVEEEDAATYYCQHSRELPPTFGGGTKLEIK', 'koff', 's⁻¹', 0.000321);
